Attribution: patent US5624923A

Test system: Vasopressin V1
TEST_PROTOCOL: Vasopressin V1 Antagonist Activity in Conscious Rats (vasopressin vasopressor response)
Format: in vivo, rat
Parameters: unit not given here
EXPERIMENTAL_SETUP: 10 mg/kg i.v., VAS 0.01 i.u./kg, 120 min, SHR
Rule: Average Change of 10 or more gives T; anything lower gives F.

{"QUERY_SMILES": "O=C(Nc1ccc(C(=O)N2Cc3cccn3Cc3ccccc32)cc1)C1CCCCC1", "TARGET_DESC": "Vasopressin V1", "CLASS_ASSIGNMENT": "F"}
{"QUERY_SMILES": "Cc1ccccc1C(=O)Nc1ccc(C(=O)N2Cc3ccc(Cl)n3Cc3ccccc32)cc1", "TARGET_DESC": "Vasopressin V1", "CLASS_ASSIGNMENT": "T"}
{"QUERY_SMILES": "Cc1ccccc1NC(=O)Nc1ccc(C(=O)N2Cc3cccn3Cc3ccccc32)cc1", "TARGET_DESC": "Vasopressin V1", "CLASS_ASSIGNMENT": "T"}
{"QUERY_SMILES": "Cc1cc(C(=O)N2Cc3cccn3Cc3ccccc32)ccc1N", "TARGET_DESC": "Vasopressin V1", "CLASS_ASSIGNMENT": "T"}
{"QUERY_SMILES": "Cc1ccsc1C(=O)Nc1ccc(C(=O)N2Cc3cccn3Cc3ccccc32)cc1", "TARGET_DESC": "Vasopressin V1", "CLASS_ASSIGNMENT": "T"}

[in] Has Cc1ccccc1CC(=O)Nc1ccc(C(=O)N2Cc3cccn3Cc3ccccc32)cc1 a recorded Average Change greater than or equal to 10?
[out] F

[in] Has Cc1ccccc1C(=O)N(C)c1ccc(C(=O)N2Cc3cccn3Cc3ccccc32)cc1 a recorded Average Change greater than or equal to 10?
[out] T

[in] Has O=C(Nc1ccc(C(=O)N2Cc3cccn3Cc3ccccc32)cc1)c1cccc(F)c1F a recorded Average Change greater than or equal to 10?
[out] T
